inhibition listing for selected molecules.
- system-tested: Vasoactive intestinal polypeptide receptor 2 (Homo sapiens)
- measurement-protocol: Antagonist activity at recombinant human N-terminal signal peptide/FLAG epitope-tagged Rluc8-fused VIPR2 expressed in HEK293 cells assessed as inhibition of VIP-induced human mVenus-beta-arrestin2 binding at 0.5 uM preincubated for 5 mins with luciferin, coelenterazine H followed by VIP addition measured after 5 mins by BRET assay relative to control
- Type: cell-based

[ask] Given O=C(NCc1ccc(F)cc1F)[C@@H](Cc1ccccc1)C[C@H](O)CNS(=O)(=O)c1ccc([N+](=O)[O-])cc1 , state its recorded inhibition.
[reply] 21.1 to 23.9%

[ask] Given C#CCNC(=O)[C@H](Cc1ccccc1)C[C@H](O)CNS(=O)(=O)c1ccc([N+](=O)[O-])cc1 , state its recorded inhibition.
[reply] 3.55 to 9.4%

[ask] Given O=C(O)c1ccc(S(=O)(=O)NC[C@@H](O)C[C@@H](Cc2ccccc2)C(=O)N[C@H]2c3ccccc3C[C@H]2O)cc1 , state its recorded inhibition.
[reply] 6.4 to 13.1%

[ask] Given O=C(NN1CCCCC1)[C@@H](Cc1ccccc1)C[C@H](O)CNS(=O)(=O)c1ccc([N+](=O)[O-])cc1 , state its recorded inhibition.
[reply] -0.9 to 5.35%

[ask] Given CCN(CC)C(=O)[C@@H](Cc1ccccc1)C[C@H](O)CNS(=O)(=O)c1ccc([N+](=O)[O-])cc1 , state its recorded inhibition.
[reply] -6.6 to -3.6%

----------
inhibition listing for selected compounds.
- system-tested: Vasoactive intestinal polypeptide receptor 2 (Homo sapiens)
- measurement-protocol: Antagonist activity at recombinant human N-terminal signal peptide/FLAG epitope-tagged Rluc8-fused VIPR2 expressed in HEK293 cells assessed as inhibition of VIP-induced human mVenus-beta-arrestin2 binding at 0.5 uM preincubated for 5 mins with luciferin, coelenterazine H followed by VIP addition measured after 5 mins by BRET assay relative to control
- Format: cell-based

Please review the following examples before continuing.
smiles-repr: CO[C@@H]1Cc2ccccc2[C@@H]1NC(=O)[C@H](Cc1ccccc1)C[C@H](O)CNS(=O)(=O)c1ccc([N+](=O)[O-])cc1
inhibition: -7.1 to -2.05%
//
smiles-repr: C#CCNC(=O)[C@@H](Cc1ccccc1)C[C@H](O)CNS(=O)(=O)c1ccc([N+](=O)[O-])cc1
inhibition: 3.3 to 10.2%
//
smiles-repr: C#CCCCC(=O)NC[C@@H](O)C[C@@H](Cc1ccccc1)C(=O)N[C@H]1c2ccccc2C[C@H]1O
inhibition: 26.2 to 45.8%
//
smiles-repr: CC(=O)c1ccc(S(=O)(=O)NC[C@@H](O)C[C@@H](Cc2ccccc2)C(=O)N[C@H]2c3ccccc3C[C@H]2O)cc1
inhibition: 58.3 to 92.3%
//
smiles-repr: C=Cc1ccc(C(=O)NC[C@@H](O)C[C@@H](Cc2ccccc2)C(=O)N[C@H]2c3ccccc3C[C@H]2O)cc1
inhibition: 2.3 to 12.8%

Field: next compound
[ask] Given CO[C@@H]1Cc2ccccc2[C@@H]1NC(=O)[C@H](Cc1ccccc1)C[C@H](O)CNS(=O)(=O)c1ccc(Cl)cc1 , state its recorded inhibition.
[reply] 13.3%

----------
- system-tested: Vasoactive intestinal polypeptide receptor 2 (Homo sapiens) (UniProt P41587)
- Sequence (P41587 whole entry): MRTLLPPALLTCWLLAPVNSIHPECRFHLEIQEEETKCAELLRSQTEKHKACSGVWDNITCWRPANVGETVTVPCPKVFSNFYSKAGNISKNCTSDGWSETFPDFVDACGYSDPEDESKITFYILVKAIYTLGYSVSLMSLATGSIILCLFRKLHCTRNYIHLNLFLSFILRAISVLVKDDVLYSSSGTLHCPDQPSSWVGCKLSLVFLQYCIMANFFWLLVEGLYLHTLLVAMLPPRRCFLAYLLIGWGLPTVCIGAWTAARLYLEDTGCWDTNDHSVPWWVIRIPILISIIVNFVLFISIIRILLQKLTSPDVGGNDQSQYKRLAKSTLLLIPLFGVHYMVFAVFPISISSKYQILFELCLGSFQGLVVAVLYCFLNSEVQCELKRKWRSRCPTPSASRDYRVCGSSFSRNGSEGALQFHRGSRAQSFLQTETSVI
- measurement-protocol: Antagonist activity at recombinant human N-terminal signal peptide/FLAG epitope-tagged VIPR2 expressed in HEK293 cells co-expressing CAMYEL assessed as inhibition of VIP-induced cAMP accumulation at 0.5 uM preincubated for 5 mins with luciferin, coelenterazine H followed by VIP addition measured after 5 mins by BRET assay relative to control
- Assay type: functional, cell-based
assay-endpoint: inhibition (%)

Please review the following examples before continuing.
smiles-repr: C#CCCCC(=O)NC[C@@H](O)C[C@@H](Cc1ccccc1)C(=O)N[C@H]1c2ccccc2C[C@H]1O
unit: %
inhibition: 20.8

smiles-repr: O=C(Cc1cccc(Cl)c1)NC[C@@H](O)C[C@@H](Cc1ccccc1)C(=O)N[C@H]1c2ccccc2C[C@H]1O
unit: %
inhibition: 14.4

(A) C=Cc1ccc(C(=O)NC[C@@H](O)C[C@@H](Cc2ccccc2)C(=O)N[C@H]2c3ccccc3C[C@H]2O)cc1
(B) CCCNc1ccc(S(=O)(=O)NC[C@@H](O)C[C@@H](Cc2ccccc2)C(=O)N[C@H]2c3ccccc3C[C@H]2O)cc1
(C) O=C([C@@H](Cc1ccccc1)C[C@H](O)CNS(=O)(=O)c1ccc([N+](=O)[O-])cc1)N1CCOCC1
(D) O=C(N[C@H]1c2ccccc2C[C@H]1O)[C@H](Cc1ccccc1)C[C@H](O)CNS(=O)(=O)c1ccccc1F
[ask] Arrange the 4 compounds from largest to smallest inhibition. Answer by writing out the labels in the requested order.
[reply] D, A, B, C

These data points were gathered from ChEMBL document CHEMBL3879914.
